Measured values drawn from PubChem BioAssay (NCI) for this set.

system: SW-620 colon; assay: NCI tumour cell line growth inhibition, 48 h; in the data active means GI50 below about 0.43 µM; inactive means the rest
Just give me one of these, please: yes for active, no for inactive

Known results for compounds:
INSERT INTO measurements (compound, group_label) VALUES
  ('C#Cc1cccc(NC(=O)C2CCCN(C(=O)CCl)C2)c1 (configuration not stated)', 'no'),
  ('C=C1CC/C=C(\C)CC[C@H](C(=C)C)[C@@H](O)/C=C(/CO)CCC1O (some centres not stated)', 'no'),
  ('Cc1ccnc(Nc2ccc([N+](=O)[O-])c(NCCN3CCOCC3)n2)c1', 'yes');

Challenge: Query: recorded result category for c1cncc(C2ONC3=NCCN32)c1 (configuration not stated) in this test
Response given: no

Challenge: Query: recorded result category for CCOc1ccc(Nc2nc(-c3c(C)nc4ncccn34)cs2)cc1 in this test
Response given: yes

Challenge: Query: recorded result category for CNCc1cccc2c1OCCOCCOCCC(C)S(=O)(=O)c1ccc(cc1)-c1cnc(N)c(n1)C(=O)N2 (configuration not stated) in this test
Response given: no

Challenge: Query: recorded result category for CCN(CC)CCOc1ccc2c(C)c(C(=O)OC)oc2c1C(=O)/C=C/c1ccc(OC)cc1 in this test
Response given: no
